test system: VDR:RXRa (NR concentration 270 nM, RXRa partner concentration 90 nM); experiment: PBM binding z-score (relative to random genomic background probes); higher = stronger binding; sequences stand for … in GC…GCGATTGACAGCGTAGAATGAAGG
Criterion: PBM binding z-score meeting or surpassing 1. Met: Yes. Not met: No.

Would you please look over these solved cases?
TCTATTAGTTGATTAGGGAAACCGAAACAGCGGA | No
ACAGACAGGTGAGTGAAGGTAACCCAGCTGGACG | No

Data request: Please indicate if the recorded PBM binding z-score for TCGAGTAGGTTAGTCGGGGCATTCTGCCAACATA meets or exceeds 1.
Data returned: Yes

Data request: Confirm if PBM binding z-score reported for the sequence ATATGTAGGTTAGCTGGGATCATTCAGACTAGGC is 1 or above.
Data returned: No

Data request: Hi team, for TCATATATGTAAAGGTGAAAGTCGAACGATATGA , is the recorded PBM binding z-score at or above 1?
Data returned: Yes

Data request: # check: PBM binding z-score of CCTAACGGGTCACTCCAGGTTATAGCATCGGAGT is greater than or equal to 1
Data returned: Yes

Data request: Please tell me: is the sequence CGTCCAAGGTCATAGGAGGTCAGTGATGACAGAT at or over 1 in terms of PBM binding z-score?
Data returned: Yes

Data request: Reported PBM binding z-score at or above 1? AGAACGAGGTTATTAAGATCAGGGAATTGCGGTC
Data returned: Yes

Data request: Could you please find out whether AGAATGAGGTTACCAACGATCAGGGAAACGCTTG has PBM binding z-score that meets 1 or exceeds it?
Data returned: Yes

Data request: Answer whether PBM binding z-score of ATATGTGGGTTAGCTGGGGTCATTCAGACTAGGC is greater than or equal to 1.
Data returned: Yes

Data request: Check the entry AGAATGAGGTTATACGTAAATCAGGGAAGAAAGT : does PBM binding z-score equal or exceed 1?
Data returned: Yes

====

system: VDR homodimer (NR concentration 270 nM); experiment: PBM binding z-score (relative to random genomic background probes); higher = stronger binding; sequences stand for … in GC…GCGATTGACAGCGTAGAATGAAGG
Parameter measured: PBM binding z-score

GCTTCTAGGTCAGGTTGGTCAGCTAACGGGTACG | 0.679
ATATGTAGGTTACATCCGGGTAATTCAGGCTATG | 0.278

Data request: PBM binding z-score lookup needed for CCGAGTAGGTTATGGGGCAATCAGGCAACGGTGA , thanks.
Data returned: 0.0803

Data request: Need PBM binding z-score, item AGAATCAGGTTAAGATCAGGGAAACAGAATACAT
Data returned: 0.415

Data request: I have this sequence here, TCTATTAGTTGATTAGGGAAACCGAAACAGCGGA , and I need its recorded PBM binding z-score.
Data returned: 0.507

Data request: Data request, read-out PBM binding z-score, for CGTCAAAGTTCAGGGTAACGTAACAGAAAGCAGC
Data returned: 2.51

Data request: PBM binding z-score for CCTACTGGGCCAAAAAGGTCATTCATGCCGATAA ?
Data returned: 3.01

Data request: // lookup PBM binding z-score for CCTTACGGGTCAAGGCTATAGCACGGGTGGTACG
Data returned: 0.575

Data request: Which PBM binding z-score reading was recorded for the sequence GCTGCTAGGTCAGGTTGGCCAGCTAACGGGTACG ?
Data returned: 0.0457

Data request: Fill blank: measured PBM binding z-score of the sequence CTTACTGGGCCAAGGTCATTGATCAGTCAAAGCA is ____.
Data returned: 3.76

Data request: Please look up its PBM binding z-score: AGAACCAGGGCAATGAGTTGATAGCACGGGTGGC
Data returned: 0.986

These measurements were taken from the supplement of paper PMC6555819.
